In this section, each of the compounds is paired with its reported inhibition.
Target: Adenosine receptor A2a (Homo sapiens, UniProt P29274)
Sequence (P29274 whole entry): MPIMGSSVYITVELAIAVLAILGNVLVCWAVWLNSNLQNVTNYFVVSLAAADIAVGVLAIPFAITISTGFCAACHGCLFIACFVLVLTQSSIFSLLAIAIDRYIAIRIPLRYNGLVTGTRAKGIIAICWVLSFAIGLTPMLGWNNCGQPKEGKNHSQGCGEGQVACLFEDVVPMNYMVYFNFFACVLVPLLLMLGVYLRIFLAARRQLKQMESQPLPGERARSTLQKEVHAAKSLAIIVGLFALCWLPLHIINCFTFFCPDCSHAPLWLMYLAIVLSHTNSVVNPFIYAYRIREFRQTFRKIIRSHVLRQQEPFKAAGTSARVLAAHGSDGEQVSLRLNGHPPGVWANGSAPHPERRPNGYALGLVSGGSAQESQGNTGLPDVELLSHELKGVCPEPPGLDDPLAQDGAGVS
Experiment: Displacement of [3]ZM241385 from human adenosine A2A receptor expressed in HeLa cells at 1 uM
Assay type: cell-based

- compound: "CCOc1nc2ccccc2n2nc(-c3ccco3)nc12"
  inhibition: "38%"
- compound: "c1ccc(COc2nc3ccccc3n3nc(-c4ccco4)nc23)cc1"
  inhibition: "38%"
- compound: "O=C(Nc1nc2ccccc2n2nc(-c3ccco3)nc12)c1cccs1"
  inhibition: "10%"
- compound: "COC(CNc1nc2ccccc2n2nc(-c3ccco3)nc12)OC"
  inhibition: "20%"
- compound: "NCC(O)CNc1nc2ccccc2n2nc(-c3ccco3)nc12 (stereo not drawn)"
  inhibition: "57%"
- compound: "c1coc(COc2nc3ccccc3n3nc(-c4ccco4)nc23)c1"
  inhibition: "8%"
- compound: "OCCN1CCN(c2nc3ccccc3n3nc(-c4ccco4)nc23)CC1"
  inhibition: "12%"
- compound: "c1coc(-c2nc3c(N4CCNCC4)nc4ccccc4n3n2)c1"
  inhibition: "7%"

---

In this section, each of the compounds is paired with its reported inhibition.
Biological target: Adenosine receptor A3 (Homo sapiens) (UniProt P0DMS8)
Sequence (P0DMS8 whole entry): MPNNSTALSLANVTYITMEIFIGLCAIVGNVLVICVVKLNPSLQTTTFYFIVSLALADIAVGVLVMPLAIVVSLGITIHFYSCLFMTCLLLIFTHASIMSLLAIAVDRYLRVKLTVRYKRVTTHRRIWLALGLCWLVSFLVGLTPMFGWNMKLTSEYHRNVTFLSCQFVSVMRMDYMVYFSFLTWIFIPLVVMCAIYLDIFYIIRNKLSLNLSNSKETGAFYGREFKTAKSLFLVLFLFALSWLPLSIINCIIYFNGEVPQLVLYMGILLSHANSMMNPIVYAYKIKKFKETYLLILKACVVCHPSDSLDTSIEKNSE
Assay: Displacement of [3]NECA from human adenosine A3 receptor expressed in HeLa cells at 1 uM
Format: cell-based

- compound: "c1coc(CNc2nc3ccccc3n3nc(-c4ccco4)nc23)c1"
  inhibition / %: 57.3
- compound: "c1ccc(Nc2nc3ccccc3n3nc(-c4ccco4)nc23)cc1"
  inhibition / %: 71.7
- compound: "OCCN(CCO)c1nc2ccccc2n2nc(-c3ccco3)nc12"
  inhibition / %: 51.7
- compound: "COC(CNc1nc2ccccc2n2nc(-c3ccco3)nc12)OC"
  inhibition / %: 55.3
- compound: "c1ccc(CNc2nc3ccccc3n3nc(-c4ccco4)nc23)cc1"
  inhibition / %: 32.6
- compound: "OCCN1CCN(c2nc3ccccc3n3nc(-c4ccco4)nc23)CC1"
  inhibition / %: 24
- compound: "CCN(CC)c1nc2ccccc2n2nc(-c3ccco3)nc12"
  inhibition / %: 10.4
- compound: "c1coc(-c2nc3c(N4CCNCC4)nc4ccccc4n3n2)c1"
  inhibition / %: 26.7
- compound: "CCOc1nc2ccccc2n2nc(-c3ccco3)nc12"
  inhibition / %: 69
- compound: "NCC(O)CNc1nc2ccccc2n2nc(-c3ccco3)nc12 (centres undefined)"
  inhibition / %: 43
- compound: "O=C(Nc1nc2ccccc2n2nc(-c3ccco3)nc12)c1cccs1"
  inhibition / %: 52
- compound: "COc1nc2ccccc2n2nc(-c3ccco3)nc12"
  inhibition / %: 57.4
- compound: "COCCCNc1nc2ccccc2n2nc(-c3ccco3)nc12"
  inhibition / %: 82
- compound: "CN(C)c1nc2ccccc2n2nc(-c3ccco3)nc12"
  inhibition / %: 50.7

---

Molecular target: Adenosine receptor A1 (Homo sapiens) (UniProt P30542)
Sequence (P30542 whole entry): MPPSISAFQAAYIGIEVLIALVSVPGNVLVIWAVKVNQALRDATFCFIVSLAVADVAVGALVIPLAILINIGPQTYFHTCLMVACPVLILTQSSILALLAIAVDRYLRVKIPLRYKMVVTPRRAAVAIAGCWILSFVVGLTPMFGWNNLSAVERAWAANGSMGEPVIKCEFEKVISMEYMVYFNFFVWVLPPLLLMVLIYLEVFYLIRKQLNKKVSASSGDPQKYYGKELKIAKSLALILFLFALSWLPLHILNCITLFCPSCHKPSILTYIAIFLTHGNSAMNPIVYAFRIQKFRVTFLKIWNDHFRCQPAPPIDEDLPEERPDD
Test: Displacement of [3]DPCPX from human adenosine A1 receptor expressed in CHO cells at 1 uM
Type: cell-based
In this section, each of the compounds is paired with its reported inhibition.
observed-property: inhibition (%)

- mol-smiles: "c1coc(COc2nc3ccccc3n3nc(-c4ccco4)nc23)c1"
  observed-property: "inhibition"
  unit-name: "%"
  obs-value: 55.1
- mol-smiles: "CN(C)c1nc2ccccc2n2nc(-c3ccco3)nc12"
  observed-property: "inhibition"
  unit-name: "%"
  obs-value: 31.1
- mol-smiles: "c1ccc(COc2nc3ccccc3n3nc(-c4ccco4)nc23)cc1"
  observed-property: "inhibition"
  unit-name: "%"
  obs-value: 13.8
- mol-smiles: "c1coc(-c2nc3c(N4CCNCC4)nc4ccccc4n3n2)c1"
  observed-property: "inhibition"
  unit-name: "%"
  obs-value: 12.3
- mol-smiles: "OCCN1CCN(c2nc3ccccc3n3nc(-c4ccco4)nc23)CC1"
  observed-property: "inhibition"
  unit-name: "%"
  obs-value: 24.5
